The reported numbers originate from patent US9243281B2.

Target: Human NAMPT (Homo sapiens)
Construct: made in house; host or cells: E. coli
Sequence (P43490 whole entry): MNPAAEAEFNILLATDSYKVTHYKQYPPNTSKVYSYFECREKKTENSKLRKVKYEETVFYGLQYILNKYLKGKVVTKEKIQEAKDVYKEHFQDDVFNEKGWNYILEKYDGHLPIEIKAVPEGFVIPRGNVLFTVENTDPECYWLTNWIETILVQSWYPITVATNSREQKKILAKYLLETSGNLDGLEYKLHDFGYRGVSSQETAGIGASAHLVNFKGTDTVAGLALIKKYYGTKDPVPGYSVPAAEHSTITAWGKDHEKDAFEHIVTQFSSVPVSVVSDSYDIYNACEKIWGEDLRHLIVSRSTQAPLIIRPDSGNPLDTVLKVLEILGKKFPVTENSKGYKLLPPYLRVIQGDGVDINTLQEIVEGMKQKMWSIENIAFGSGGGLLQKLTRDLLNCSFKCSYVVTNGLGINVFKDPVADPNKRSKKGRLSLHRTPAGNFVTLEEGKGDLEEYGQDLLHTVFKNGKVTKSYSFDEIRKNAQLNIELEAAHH
Experiment: in vitro NAMPT coupled-enzyme assay (NADH at OD340 nm)
Format: biochemical
Details: relative reaction rate normalized by the control reaction run prior to compound addition; vehicle 0.98
Measured property: NAMPT activation
Just the number, please, no unit after it.

Examples with their reported NAMPT activation follow.
Brc1ccc2c(c1)c1cc(Br)ccc1n2CCCNc1ccccc1
1.12
Cl.NCC(F)Cn1c2ccc(Br)cc2c2cc(Br)ccc21 (stereo not drawn)
0.89
COc1cccc(NC[C@@H](F)Cn2c3ccc(Br)cc3c3cc(Br)ccc32)n1 [(+)-S243]
1.13
O=S(=O)(CC(F)Cn1c2ccc(Br)cc2c2cc(Br)ccc21)c1cccc(O)c1 (stereo not drawn)
1.12
CC(C)(C)OC(=O)NCC(F)Cn1c2ccc(Br)cc2c2cc(Br)ccc21 (stereo not drawn)
1.16

Problem: What does the record list as NAMPT activation for COCCOCCOc1ccc(NCC(F)Cn2c3ccc(Br)cc3c3cc(Br)ccc32)cc1 (stereo not drawn) ?
Result: 1.21

Problem: What does the record list as NAMPT activation for O=S(=O)(CC(F)Cn1c2ccc(Br)cc2c2cc(Br)ccc21)c1ccccc1 (stereo not drawn) ?
Result: 1.05

Problem: What does the record list as NAMPT activation for CN1C(=O)CN=C(c2ccc(Cl)cc2)c2cc(Cl)ccc21 ?
Result: 1.00

Problem: What does the record list as NAMPT activation for COc1cccc(NCC(F)(F)Cn2c3ccc(Br)cc3c3cc(Br)ccc32)c1 ?
Result: 1.02

###

# reported NAMPT activation; entries follow
Target: Human NAMPT (Homo sapiens)
Construct: made in house; host or cells: E. coli
Assay: in vitro NAMPT coupled-enzyme assay (NADH at OD340 nm)
Assay type: biochemical
Details: relative reaction rate normalized by the control reaction run prior to compound addition; vehicle 0.98
Protocol: FIGS. 7A-7C. […] (FIG. 7A) P7C3-A20 was incubated at indicated concentrations in a reaction coupled with three enzymes; NAMPT, NMNAT, and ADH (Experimental Procedures). NAMPT activity was recorded for the indicated period of time at OD340 nm by measuring NADH appearance, leading to the indicated concentration-time plot. […] The reaction rate was calculated as the slope of the concentration-time curve. […] Data are expressed as mean±SD of duplicate independent assays. […]
Just the number, please, no unit after it.

Examples with their reported NAMPT activation follow.
c1ccc2c(c1)CCc1ccccc1N2
1.04
N#Cc1[nH]c2ccc(Br)cc2c1N
1.02
CS(=O)(=O)NC(=O)Cn1c2ccc(Br)cc2c2cc(Br)ccc21
1.00
COc1cccc(NCC(Cn2c3ccc(Br)cc3c3cc(Br)ccc32)OC)c1 (stereo not drawn)
1.21
O=S(=O)(CC(F)Cn1c2ccc(Br)cc2c2cc(Br)ccc21)c1ccc(O)cc1 (stereo not drawn)
0.97
COc1cccc(NCC(F)Cn2c3ccc(Br)cc3c3cc(Br)ccc32)n1 (racemic)
1.26
COc1cccc(NCC(=O)Cn2c3ccc(Br)cc3c3cc(Br)ccc32)c1
1.06
COc1cccc(NC[C@H](F)Cn2c3ccc(Br)cc3c3cc(Br)ccc32)n1 [(−)-S243]
1.33
N#CCn1c2ccc(Br)cc2c2cc(Br)ccc21
0.97
COc1cccc(S(=O)(=O)CC(F)Cn2c3ccc(Br)cc3c3cc(Br)ccc32)c1 (stereo not drawn)
0.96

Problem: Short answer please: NAMPT activation, Human NAMPT (Homo sapiens), entry [N-]=[N+]=NCC(F)Cn1c2ccc(Br)cc2c2cc(Br)ccc21 (stereo not drawn)
Result: 1.06

Problem: Short answer please: NAMPT activation, Human NAMPT (Homo sapiens), entry C#CCOc1ccc(C(=O)c2ccc(C(=O)NCC(F)Cn3c4ccc(Br)cc4c4cc(Br)ccc43)cc2)cc1 (stereo not drawn)
Result: 1.10
